system: male Sprague-Dawley rats; assay: elevated maze test in the rat; type: in vivo; conditions: per os, 60-min pretreatment, 5-min measurement, time spent in the open arms and number of entries into the open arms
parameterMeasured: MED (minimum effective dose), anxiolytic effect in elevated maze test

molecule: CC1=NNS(=O)(=O)c2c(Cl)c(Cl)cc(C)c21
result: ≦0.01 mg/kg p.o.

molecule: CN1N=Cc2ccc(Cl)c(Cl)c2S1(=O)=O
result: ≦0.01 mg/kg p.o.

molecule: CN1C(=O)CN=C(c2ccccc2)c2cc(Cl)ccc21 [Diazepam, reference compound]
result: 1.00 mg/kg p.o.

molecule: CC1=NNS(=O)(=O)c2c1ccc(Cl)c2Cl
result: ≦0.01 mg/kg p.o.
